System: MDA-MB-231
Experiment: MTT antiproliferative assay, MDA-MB-231
Type: cell-based
Settings: Homo sapiens, normoxic conditions, 72 h
pIC50: −log10 of the molar value.
Recorded endpoint: pIC50

• NS(=O)(=O)c1ccc(CCN(Cc2cccc3ccccc23)C(=O)c2ccc(-c3cssc3=S)cc2)cc1 = 5.02

a. COc1cc([N+](=O)[O-])ccc1CN(CCc1ccc(S(N)(=O)=O)cc1)C(=O)c1ccc(-c2cssc2=S)cc1
b. N#Cc1ccc(CN(CCc2ccc(S(N)(=O)=O)cc2)C(=O)c2ccc(-c3cssc3=S)cc2)cc1
c. NS(=O)(=O)c1ccc(CCN(Cc2ccc(Br)cc2)C(=O)c2ccc(-c3cssc3=S)cc2)cc1
d. CSc1ccc(CN(CCc2ccc(S(N)(=O)=O)cc2)C(=O)c2ccc(-c3cssc3=S)cc2)cc1
Exam item: Arrange these 4 compounds in increasing order of pIC50. List labels; respect the requested ordering.
Marked response: a, c, d, b
(a: 4.98, c: 5.20, d: 5.49, b: 5.82)

* * *

System: hCA IX
Experiment: Stopped-flow CO2 hydrase inhibition assay, hCA IX
Assay type: biochemical, human
Conditions: ratio of KIs
Protocol: An Applied Photophysics stopped-flow instrument (Applied Photophysics Ltd, Leatherhead, UK) was used for assaying the CA-catalyzed CO2 hydration activity. Phenol red (at a concentration of 0.2 mM) was used as an indicator, working at the absorbance maximum of 557 nm, with 20 mM Hepes (pH 7.5) as a buffer and 20 mM Na2SO4 for maintaining constant the ionic strength, following the initial rates of the CA-catalyzed CO2 hydration reaction for a period of 10−100 s. […]
Recorded endpoint: hCA II/hCA IX selectivity ratio

Check out these entries, answers already filled in.
* N#Cc1ccc(CN(CCc2ccc(S(N)(=O)=O)cc2)C(=O)c2ccc(-c3cssc3=S)cc2)cc1 | 120
* CSc1ccc(CN(CCc2ccc(S(N)(=O)=O)cc2)C(=O)c2ccc(-c3cssc3=S)cc2)cc1 | 209

1. COc1cc([N+](=O)[O-])ccc1CN(CCc1ccc(S(N)(=O)=O)cc1)C(=O)c1ccc(-c2cssc2=S)cc1
2. NS(=O)(=O)c1ccc(CCN(Cc2ccc(Br)cc2)C(=O)c2ccc(-c3cssc3=S)cc2)cc1
3. NS(=O)(=O)c1ccc(CCN(Cc2cccc3ccccc23)C(=O)c2ccc(-c3cssc3=S)cc2)cc1
Exam item: Arrange these 3 compounds in increasing order of hCA II/hCA IX selectivity ratio. List labels; respect the requested ordering.
Marked response: 2, 3, 1
(2: 192, 3: 286, 1: 719)

* * *

Tested on: hCA XII
Test: Stopped-flow CO2 hydrase inhibition assay, hCA XII
Assay type: biochemical, human
Settings: ratio of KIs
Recorded endpoint: hCA II/hCA XII selectivity ratio

I. N#Cc1ccc(CN(CCc2ccc(S(N)(=O)=O)cc2)C(=O)c2ccc(-c3cssc3=S)cc2)cc1 [Compound 23]
II. NS(=O)(=O)c1ccc(CCN(Cc2ccc(Br)cc2)C(=O)c2ccc(-c3cssc3=S)cc2)cc1 [Compound 22]
III. CSc1ccc(CN(CCc2ccc(S(N)(=O)=O)cc2)C(=O)c2ccc(-c3cssc3=S)cc2)cc1 [Compound 29]
Exam item: Thanks in advance: please rank these 3 entries by hCA II/hCA XII selectivity ratio, highest to lowest. List labels; respect the requested ordering.
Marked response: III, I, II

* * *

Tested on: HCT-116
Assay: MTT antiproliferative assay, HCT-116 (normoxia and CoCl2-induced hypoxia)
Type: cell-based, human
Conditions: Homo sapiens, HCT-116; normoxic conditions, MTT, 72 h; read-out: IC50 HCT-116 (Normoxia)
Recorded endpoint: IC50 (nM)

• NS(=O)(=O)c1ccc(CCN(Cc2cccc3ccccc23)C(=O)c2ccc(-c3cssc3=S)cc2)cc1 = 2300

A. N#Cc1ccc(CN(CCc2ccc(S(N)(=O)=O)cc2)C(=O)c2ccc(-c3cssc3=S)cc2)cc1
B. COc1cc([N+](=O)[O-])ccc1CN(CCc1ccc(S(N)(=O)=O)cc1)C(=O)c1ccc(-c2cssc2=S)cc1
Exam item: Which of these two has the smaller recorded IC50: A or B ? Lab log: write the label of the selected item as the result.
Marked response: A
(A: 1240 nM, B: 2300 nM)

a. NS(=O)(=O)c1ccc(CCN(Cc2ccc(Br)cc2)C(=O)c2ccc(-c3cssc3=S)cc2)cc1
b. CSc1ccc(CN(CCc2ccc(S(N)(=O)=O)cc2)C(=O)c2ccc(-c3cssc3=S)cc2)cc1
Exam item: Lab note: check whether a or b shows the higher recorded IC50. Lab log: write the label of the selected item as the result.
Marked response: b
(b: 10100 nM, a: 6620 nM)

* * *

Tested on: HCT-116
Assay: MTT antiproliferative assay, HCT-116 (normoxia and CoCl2-induced hypoxia)
Format: cell-based, human
Conditions: Homo sapiens, HCT-116; chemically induced hypoxia with CoCl2·6H2O, MTT, 72 h; read-out: IC50 HCT-116 (Hypoxia)
pIC50: −log10 of the molar value.
Recorded endpoint: pIC50

Check out these entries, answers already filled in.
- CSc1ccc(CN(CCc2ccc(S(N)(=O)=O)cc2)C(=O)c2ccc(-c3cssc3=S)cc2)cc1 [Compound 29]: 4.90
- N#Cc1ccc(CN(CCc2ccc(S(N)(=O)=O)cc2)C(=O)c2ccc(-c3cssc3=S)cc2)cc1 [Compound 23]: 5.37

P. NS(=O)(=O)c1ccc(CCN(Cc2cccc3ccccc23)C(=O)c2ccc(-c3cssc3=S)cc2)cc1 [Compound 30]
Q. COc1cc([N+](=O)[O-])ccc1CN(CCc1ccc(S(N)(=O)=O)cc1)C(=O)c1ccc(-c2cssc2=S)cc1 [Compound 26]
R. NS(=O)(=O)c1ccc(CCN(Cc2ccc(Br)cc2)C(=O)c2ccc(-c3cssc3=S)cc2)cc1 [Compound 22]
Exam item: Arrange these 3 molecules in increasing order of pIC50. List labels; respect the requested ordering.
Marked response: R, Q, P

* * *

Tested on: HCT-116
Test: MTT antiproliferative assay, HCT-116 (normoxia and CoCl2-induced hypoxia)
Type: cell-based, human
Conditions: HCT-116
Recorded endpoint: IC50 Normoxia / IC50 Hypoxia

Check out these entries, answers already filled in.
- COc1cc([N+](=O)[O-])ccc1CN(CCc1ccc(S(N)(=O)=O)cc1)C(=O)c1ccc(-c2cssc2=S)cc1: 0.6
- CSc1ccc(CN(CCc2ccc(S(N)(=O)=O)cc2)C(=O)c2ccc(-c3cssc3=S)cc2)cc1: 0.8

a. NS(=O)(=O)c1ccc(CCN(Cc2cccc3ccccc23)C(=O)c2ccc(-c3cssc3=S)cc2)cc1
b. NS(=O)(=O)c1ccc(CCN(Cc2ccc(Br)cc2)C(=O)c2ccc(-c3cssc3=S)cc2)cc1
c. N#Cc1ccc(CN(CCc2ccc(S(N)(=O)=O)cc2)C(=O)c2ccc(-c3cssc3=S)cc2)cc1
Exam item: Arrange these 3 compounds in increasing order of IC50 Normoxia / IC50 Hypoxia. List labels; respect the requested ordering.
Marked response: c, b, a
(c: 0.3, b: 0.6, a: 2.5)
